System: MOLM14;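 note: after 48 h exposure read by CellTiter-Glo luminescence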
Experiment: cell viability relative to vehicle control; higher = less cytotoxic
Conditions: 10 µM; SRSF2 genotype: SRSF2 P95H/wt

compound	output-unit	cell viability
Nc1ncnc2c1c(I)cn2C1OC(CO)C(O)C1O (stereo not given)	%	0.78
COc1cc(OC)cc(N(CCNC(C)C)c2ccc3ncc(-c4cnn(C)c4)nc3c2)c1	%	34.8
CSc1ccc(C(=O)/C=C/c2cc(C)c(OC(C)(C)C(=O)O)c(C)c2)cc1	%	34.2
Cc1cc(-c2cc(C)c(NCCCS(=O)(=O)O)c(C)c2)cc(C)c1N	%	100
C#Cc1cccc(Nc2ncnc3cc(OC)c(OCCCCCCC(=O)NO)cc23)c1	%	1.03
